targetUnderTest: human mineralocorticoid receptor (MR) (Homo sapiens, UniProt P08235)
Sequence (P08235 734-984 limits assumed): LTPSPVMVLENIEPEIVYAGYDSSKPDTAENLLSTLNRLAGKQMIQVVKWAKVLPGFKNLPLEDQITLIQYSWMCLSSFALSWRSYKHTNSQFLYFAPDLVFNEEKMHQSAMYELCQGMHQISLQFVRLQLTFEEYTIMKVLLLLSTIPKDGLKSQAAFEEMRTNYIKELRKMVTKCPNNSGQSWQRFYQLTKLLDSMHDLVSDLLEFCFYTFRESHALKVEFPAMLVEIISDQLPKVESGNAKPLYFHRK
testDetails: Cellular in vitro assay to determine the inhibitory MR activity (GAL4-MR chimera luciferase reporter in CHO K1 cells)
measurementContext: antagonism of aldosterone-stimulated luciferase activity
# maps each entry to its IC50
property: IC50 (nM)

compound="CCOc1ncc(C)c2c1[C@H](c1ccc(C#N)cc1OC)C(C(N)=O)=C(C)N2 [5 [(−)-enantiomer]]" readoutvalue=16
compound="CCOc1nccc2c1C(c1ccc(C#N)cc1OC)C(C(N)=O)=C(C)N2 (stereo not drawn) [Example 1]" readoutvalue=35
compound="CCOc1ncc(C)c2c1C(c1ccc(C#N)cc1OC)C(C(N)=O)=C(C)N2 (racemic) [Example 4]" readoutvalue=23
